Source: PubChem BioAssay (NCI)

test system: SF-268 CNS; assay: NCI-60 one-dose screen, 48 h (100 = growth as untreated, 0 = no growth, -100 = all killed); settings: 10 µM unless noted
About 83,000 compounds went through this panel and 20% of them were active in at least one assay; those are over-represented in the sample as a whole. The source made the active and inactive calls. Rule for the calls: active = growth percent below 10; inactive = the rest.
REPORTED PROPERTY: growth

Study these solved cases before continuing.
> print(dat)
                                   compound   endpoint.result
1  COC(=O)c1cc(Nc2ccc(O)c3c2C(=O)c2c([N+](=O)[O-])ccc(O)c2C3=O)cc(C(=O)OC)c1  55.1% (inactive)
2     c1ccc(C(=NNc2nc3ccccc3o2)c2ccccn2)nc1    7.72% (active)
3       O=C(N/N=C/c1ccccc1Cl)c1cccc2ccccc12   104% (inactive)
4                   CCN(CC)CCOC(=O)c1cccnc1   102% (inactive)
5  CCOC(=O)C1C(=O)C(=O)N(C(C)C)C1C(=O)OCC (stereo unspecified)  99.3% (inactive)
6                      Cc1nc(N)sc1C(=O)NCCO  98.6% (inactive)
7  O=C1c2cc([N+](=O)[O-])ccc2-c2cc(Cl)c(NC(=O)C(F)(F)F)cc21   107% (inactive)
8  O=C(O)CC1Cc2ccccc2C1C(=O)O (stereo unspecified)   100% (inactive)

Report growth from SF-268 CNS testing of CC1(c2ccc(Br)cc2)NC(=O)NC1=O (stereo unspecified) 98.4% (inactive)

Report growth from SF-268 CNS testing of COC(=O)c1ccc2[nH]c(O)c(C(=Nc3ccc(N(C)C(=O)CN4CCN(C)CC4)cc3)c3ccc(N)cc3)c2c1 62.4% (inactive)

Report growth from SF-268 CNS testing of CCOC(=O)CCCCCCCCC(=O)OCC 97.3% (inactive)
